All values here come from patent US20250011456A1.

# test.target: T1, human CD14 antigen (B294801, histidine tagged) (Homo sapiens, UniProt P08571)
# T1 construct: His; purchased Shanghai BaiYing Biotechnology Co., Ltd B294801 (Batch number 20200518A22)
# T1 sequence (P08571 20-345): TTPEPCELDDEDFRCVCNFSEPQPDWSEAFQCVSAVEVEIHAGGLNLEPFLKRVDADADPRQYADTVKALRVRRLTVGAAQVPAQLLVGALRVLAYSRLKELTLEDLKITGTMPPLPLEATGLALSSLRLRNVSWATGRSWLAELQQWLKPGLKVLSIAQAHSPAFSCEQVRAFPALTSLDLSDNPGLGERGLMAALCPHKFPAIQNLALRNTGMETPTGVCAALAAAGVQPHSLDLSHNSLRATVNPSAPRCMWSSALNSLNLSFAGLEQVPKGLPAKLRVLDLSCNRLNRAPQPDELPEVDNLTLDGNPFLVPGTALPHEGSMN
# assay.comment: Biacore 8K kinetic and affinity test of antibodies without PTM sites (Example 9)
# Assay type: binding
# condition.context: Biacore 8K, analyte B294801 0.1953125-25 nM, capture conc. 1 μg/mL
result.type: Koff (s⁻¹)
Value expressed in s⁻¹; do not type the unit.

// solved cases for Koff follow
[
  {
    "molecule": "MPDDAD002: D6DD3D014-derived antibody with PTM site removed; VL amino acid nos. 34, 35: SS (antibody, V domains shown) VH: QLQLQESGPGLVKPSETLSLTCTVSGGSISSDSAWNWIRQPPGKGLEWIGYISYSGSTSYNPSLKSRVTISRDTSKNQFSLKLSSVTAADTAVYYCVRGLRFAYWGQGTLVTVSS VL: DIQLTQSPSSLSASVGDRVTITCRASESVDSYVSSFLHWYQQKPGKAPKLLIYRASNLQSGVPSRFSGSGSRTDFTLTISSLQPEDVATYYCQQSNEDPYTFGQGTKLEIK",
    "experimental.result": 0.00362
  },
  {
    "molecule": "MPDDAD004: D6DD3D014-derived antibody with PTM site removed; VL amino acid nos. 34, 35: NA (antibody, V domains shown) VH: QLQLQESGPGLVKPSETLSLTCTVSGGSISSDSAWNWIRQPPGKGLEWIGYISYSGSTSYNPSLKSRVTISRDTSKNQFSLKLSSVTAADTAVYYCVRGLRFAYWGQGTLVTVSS VL: DIQLTQSPSSLSASVGDRVTITCRASESVDSYVNAFLHWYQQKPGKAPKLLIYRASNLQSGVPSRFSGSGSRTDFTLTISSLQPEDVATYYCQQSNEDPYTFGQGTKLEIK",
    "experimental.result": 0.0046
  },
  {
    "molecule": "MPDDAD005: D6DD3D014-derived antibody with PTM site removed; VL amino acid nos. 34, 35: QS (antibody, V domains shown) VH: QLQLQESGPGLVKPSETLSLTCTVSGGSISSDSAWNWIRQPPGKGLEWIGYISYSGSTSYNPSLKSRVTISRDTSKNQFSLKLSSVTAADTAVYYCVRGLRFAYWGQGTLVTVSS VL: DIQLTQSPSSLSASVGDRVTITCRASESVDSYVQSFLHWYQQKPGKAPKLLIYRASNLQSGVPSRFSGSGSRTDFTLTISSLQPEDVATYYCQQSNEDPYTFGQGTKLEIK",
    "experimental.result": 0.00544
  },
  {
    "molecule": "MPDDAD003: D6DD3D014-derived antibody with PTM site removed; VL amino acid nos. 34, 35: TS (antibody, V domains shown) VH: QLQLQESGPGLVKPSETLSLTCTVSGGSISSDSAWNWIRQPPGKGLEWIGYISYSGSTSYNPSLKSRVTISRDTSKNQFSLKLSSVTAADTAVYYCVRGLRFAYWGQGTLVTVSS VL: DIQLTQSPSSLSASVGDRVTITCRASESVDSYVTSFLHWYQQKPGKAPKLLIYRASNLQSGVPSRFSGSGSRTDFTLTISSLQPEDVATYYCQQSNEDPYTFGQGTKLEIK",
    "experimental.result": 0.0026
  }
]

Lookup result for MPDDAD001: D6DD3D014-derived antibody with PTM site removed; VL amino acid nos. 34, 35: DS (antibody, V domains shown) VH: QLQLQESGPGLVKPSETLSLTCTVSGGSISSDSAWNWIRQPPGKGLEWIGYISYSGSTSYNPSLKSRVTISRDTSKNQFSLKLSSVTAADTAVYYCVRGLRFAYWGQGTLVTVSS VL: DIQLTQSPSSLSASVGDRVTITCRASESVDSYVDSFLHWYQQKPGKAPKLLIYRASNLQSGVPSRFSGSGSRTDFTLTISSLQPEDVATYYCQQSNEDPYTFGQGTKLEIK ; measured Koff: 0.00633
